Could you please report measured in vitro Activity Compared to Native Peptide (%), vs GLP-1 for the items listed next?
target-entity: human GLP-1 receptor (human, UniProt P43220 24-463)
assay-protocol: cell-based or functional assay
Bridges are numbered along the chain shown (N, C = ends). Where no end group is shown, it is not given here. [ ]: non-standard residue; d: D form. The star is where a group is joined. Acetyl(2-(4-imidazolyl)) = O=C(Cc1c[nH]cn1)*; Aib = CC(C)(N)C(=O)O
The answer is to be given in %; state only the numeric part.

Q. Return reported in vitro Activity Compared to Native Peptide (%), vs GLP-1; argument: H[Aib]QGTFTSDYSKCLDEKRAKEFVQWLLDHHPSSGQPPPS (bridge 16-20; not fully specified (C-terminus)) [triple agonist of SEQ ID NO: 65]
A. 95.4

Q. Return reported in vitro Activity Compared to Native Peptide (%), vs GLP-1; argument: [Acetyl(2-(4-imidazolyl))][Aib]QGTFTSDYSIAMDEIHQKDFVNWLLNTC (bridge 16-20; not fully specified (C-terminus)) [triple agonist of SEQ ID NO: 87]
A. 0.9

Q. Return reported in vitro Activity Compared to Native Peptide (%), vs GLP-1; argument: Y[Aib]QGTFTSDYSKYLDEKRAKDFVQWLLDHHPSSGQPPPSC (bridge 16-20; not fully specified (C-terminus)) [triple agonist of SEQ ID NO: 76]
A. 10.3

Q. Return reported in vitro Activity Compared to Native Peptide (%), vs GLP-1; argument: [Acetyl(2-(4-imidazolyl))][Aib]QGTFTSDYSIAMDEKHCKDFVNWLLNTK (bridge 16-20; not fully specified (C-terminus)) [triple agonist of SEQ ID NO: 60]
A. 106
